These measurements were taken from patent US9266869B2.

- tgt: VEGFR2 (KDR) (Homo sapiens (Human), UniProt P35968)
- Sequence (P35968 786-1356): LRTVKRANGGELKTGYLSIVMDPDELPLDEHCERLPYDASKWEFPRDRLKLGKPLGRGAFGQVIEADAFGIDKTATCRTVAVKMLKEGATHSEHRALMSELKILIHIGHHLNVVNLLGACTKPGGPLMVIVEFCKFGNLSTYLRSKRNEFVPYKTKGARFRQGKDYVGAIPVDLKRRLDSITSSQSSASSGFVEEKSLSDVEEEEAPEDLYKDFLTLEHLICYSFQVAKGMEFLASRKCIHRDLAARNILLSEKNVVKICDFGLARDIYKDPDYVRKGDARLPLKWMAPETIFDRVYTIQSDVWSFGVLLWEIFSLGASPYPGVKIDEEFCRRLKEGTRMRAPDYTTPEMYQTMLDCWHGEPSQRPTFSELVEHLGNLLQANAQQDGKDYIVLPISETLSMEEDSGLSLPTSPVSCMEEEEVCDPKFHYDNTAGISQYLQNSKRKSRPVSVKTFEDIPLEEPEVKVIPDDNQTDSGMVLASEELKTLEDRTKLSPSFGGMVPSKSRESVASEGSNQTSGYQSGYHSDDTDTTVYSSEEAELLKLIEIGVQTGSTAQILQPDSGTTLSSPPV
- assay procedure: VEGFR2 Kinase Assay
- Format: biochemical
- condition summary: purified cytoplasmic domain KDR protein, 2.7 μM ATP; read-out: VEGFR2 Enzyme Assay (IC50 nM)
Readings of IC50 for the listed compounds

| compound | IC50, nM |
| --- | --- |
| COC(=O)CCCCS(C)(=O)=NC(=O)c1cnc(N)c(C#Cc2cccc(NC(=O)c3cc(C)ccc3F)c2)c1 (stereo not shown) [Example 25] | 8 |
| COC(=O)CCCCS(C)(=O)=NC(=O)c1cnc(N)c(C#Cc2cccc(NC(=O)c3cccc(C)c3)c2)c1 (stereo not shown) [Example 26] | 4 |
| Cc1ccoc1C(=O)Nc1cccc(C#Cc2cncc(C(=O)N=S(=O)(CCCO)CCCO)c2)c1 [Example 14] | 5 |
| Cc1ccoc1C(=O)Nc1cccc(C#Cc2cc(C(=O)N=S(C)(=O)CCCCC(=O)O)cnc2N)c1 (stereo not shown) [Example 24] | 5 |
| COC(=O)CCCCS(C)(=O)=NC(=O)c1cnc(N)c(C#Cc2cccc(NC(=O)c3cc(C(F)(F)F)ccc3F)c2)c1 (stereo not shown) [Example 27] | 10 |
| CS(C)(=O)=NC(=O)c1cnc(N)c(C#Cc2cccc(NC(=O)c3ccc(Cl)cc3)c2)c1 [Example 5] | 2 |
| O=C(N=S(=O)(CCCO)CCCO)c1cncc(C#Cc2cccc(NC(=O)c3ccc(Cl)c(C(F)(F)F)c3)c2)c1 [Example 16] | 3 |
